test system: CCRF-CEM leukemia; assay: NCI tumour cell line growth inhibition, 48 h; in the data active = GI50 below about 0.43 µM; inactive = the rest
Outcomes: active, inactive

COc1ccc(NC(=O)/C=C(C)/C=C/C=C(C)/C=C/C2=C(C)CCCC2(C)C)cc1 inactive
c1cc(-c2nnc(SSc3ncnc4nc[nH]c34)o2)ccn1 inactive
CC[C@@]1(OC(=O)CN)C(=O)OCc2c1cc1n(c2=O)Cc2c-1nc1cc3c(cc1c2CCl)OCO3 active
O=C(Nc1ccc(-n2ccc3c(NC(=O)c4ccccc4)ncnc32)cc1)c1cccc(C(F)(F)F)c1 active
O=C(/C=C/c1ccc(O)c(O)c1)NCc1c[nH]c2ccccc12 inactive
CCN1CCN(Cc2ccc(NC(=O)Nc3nc4ccc(Oc5ccnc(C(=O)NC)c5)cc4s3)cc2C(F)(F)F)CC1 inactive
[O-]c1ccccc1C=Nc1ccc2c(c1)CCC2.[O-]c1ccccc1C=Nc1ccc2c(c1)CCC2.[O]=[U+2]=[O] inactive
COc1cccc(CN(C)c2ccc(CO)c(Cl)c2)c1 inactive
